# method-description: in vitro
# test-parameters: human
result-type: CC50
Your reply should be a number followed by the unit it is expressed in.

Give CC50 for each of the items listed below.
1. C=CC(=O)Nc1cccc(Oc2nc(Nc3ccc(N4CCN(C)CC4)cc3)nc3ccsc23)c1
2. COc1cc(Nc2c(C#N)cnc3cc(OCCCN4CCN(C)CC4)c(OC)cc23)c(Cl)cc1Cl

Return:
["12.5 µM", "6.06 µM"]

In plain terms, `C[C@@H](Oc1cc(-c2cnn(C3CCNCC3)c2)cnc1N)c1c(Cl)ccc(F)c1Cl` has a documented CC50 of 5.09 µM

----------
# test-system: SARS-Cov-2 PL^pro (Severe acute respiratory syndrome coronavirus 2, UniProt P0DTD1)
Decision: IC50 beneath 4 µM gives true (1); IC50 meeting or exceeding 4 µM gives false (0).

Worked cases, answers included:
[[record]]
structure_notation = "C=CC(=O)Nc1cccc(Oc2nc(Nc3ccc(N4CCN(C)CC4)cc3)nc3ccsc23)c1"
group = "true (1)"

[[record]]
structure_notation = "C[C@@H](Oc1cc(-c2cnn(C3CCNCC3)c2)cnc1N)c1c(Cl)ccc(F)c1Cl"
group = "true (1)"

[[record]]
structure_notation = "CC1(C)CCC2=C(O1)c1ccccc1C(=O)C2=O"
group = "false (0)"


Enquiry: is_below(IC50, 4 µM) for `CCCCCc1c2c(cc(O)c1C(=O)O)OC(=O)c1c(cc(OC)cc1C(=O)CCCC)O2` ?
Return: false (0)

Enquiry: is_below(IC50, 4 µM) for `COc1cc2ncnc(Nc3ccc(F)c(Cl)c3)c2cc1NC(=O)/C=C/CN1CCCCC1` ?
Return: true (1)

Enquiry: is_below(IC50, 4 µM) for `C[N+](C)(C)CCOP(=O)(O)OP(=O)([O-])OC[C@H]1O[C@@H](n2ccc(N)nc2=O)[C@H](O)[C@@H]1O` ?
Return: true (1)

Enquiry: is_below(IC50, 4 µM) for `O=C(c1ccc(OCCN2CCCCC2)cc1)c1c(-c2ccc(O)cc2)sc2cc(O)ccc12` ?
Return: true (1)

Enquiry: is_below(IC50, 4 µM) for `COc1cc(Nc2c(C#N)cnc3cc(OCCCN4CCN(C)CC4)c(OC)cc23)c(Cl)cc1Cl` ?
Return: false (0)

Data provenance is paper PMC10275482.
